Source: PubChem BioAssay AID1919010

Tested on: Hs578T complex spheroid growth, percent test/control
protocol: Anticancer human tumor Hs578T cell line growth inhibition [AhR];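 further: luminescent viability signal as a proxy for spheroid growth; spheroids exposed to agents for one week after three days of growth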
stated.conditions: curve of first compound; second compound 1 µM
reported.property: IC50

compound	measured.on	IC50
CC1COCCN1c1cc(C2(S(C)(=N)=O)CC2)nc(-c2ccnc3[nH]ccc23)n1 (centres undefined) + CC(CO)NC(=O)c1cc(-c2ccc(Cl)cc2)nn(-c2cnn(C)c2)c1=O	Hs578T complex spheroid growth, percent test/control	> 10 µM
Nc1ccn(C2OC(CO)C(O)C2(F)F)c(=O)n1 (centres undefined) + Cc1cncc(-c2nc(NCCc3c[nH]c4ccccc34)c3ncn(C(C)C)c3n2)c1	Hs578T complex spheroid growth, percent test/control	> 10 µM
CC[C@@]1(O)C(=O)OCc2c1cc1n(c2=O)Cc2cc3c(CN(C)C)c(O)ccc3nc2-1 + Cc1ccccc1N=Nc1ccc(NC(=O)c2ccnn2C)c(C)c1	Hs578T complex spheroid growth, percent test/control	> 0.1 µM
Cn1ncnc1C1c2n[nH]c(=O)c3cc(F)cc(c23)NC1c1ccc(F)cc1 (centres undefined) + Cc1cncc(-c2nc(NCCc3c[nH]c4ccccc34)c3ncn(C(C)C)c3n2)c1	Hs578T complex spheroid growth, percent test/control	> 0.1 µM
Nc1ccn(C2OC(CO)C(O)C2(F)F)c(=O)n1 (centres undefined) + Cc1ccccc1N=Nc1ccc(NC(=O)c2ccnn2C)c(C)c1	Hs578T complex spheroid growth, percent test/control	> 10 µM

Inquiry: Return reported IC50; argument: Nc1ncn(C2CC(O)C(CO)O2)c(=O)n1 (centres undefined) + CC(CO)NC(=O)c1cc(-c2ccc(Cl)cc2)nn(-c2cnn(C)c2)c1=O
Reply text: > 1 µM

Inquiry: Same lookup for CC1(C)CCC(CN2CCN(c3ccc(C(=O)NS(=O)(=O)c4ccc(NCC5CCOCC5)c([N+](=O)[O-])c4)c(Oc4cnc5[nH]ccc5c4)c3)CC2)=C(c2ccc(Cl)cc2)C1 + CC(CO)NC(=O)c1cc(-c2ccc(Cl)cc2)nn(-c2cnn(C)c2)c1=O , please.
Reply text: > 10 µM

Inquiry: Try this compound too: CCN(c1cc(-c2ccc(CN3CCOCC3)cc2)cc(C(=O)NCc2c(C)cc(C)[nH]c2=O)c1C)C1CCOCC1 + Cc1ccccc1N=Nc1ccc(NC(=O)c2ccnn2C)c(C)c1
Reply text: > 3 µM

Inquiry: Cool, now CC[C@@]1(O)C(=O)OCc2c1cc1n(c2=O)Cc2cc3c(CN(C)C)c(O)ccc3nc2-1 + Cc1cncc(-c2nc(NCCc3c[nH]c4ccccc34)c3ncn(C(C)C)c3n2)c1
Reply text: > 0.1 µM

Inquiry: Input CCN(c1cc(-c2ccc(CN3CCOCC3)cc2)cc(C(=O)NCc2c(C)cc(C)[nH]c2=O)c1C)C1CCOCC1 + CC(CO)NC(=O)c1cc(-c2ccc(Cl)cc2)nn(-c2cnn(C)c2)c1=O
Reply text: > 3 µM

Inquiry: What would you report for CC(C)c1c(-c2ccccc2)nc2c(C#N)c[nH]n2c1=O + Cc1cncc(-c2nc(NCCc3c[nH]c4ccccc34)c3ncn(C(C)C)c3n2)c1 ?
Reply text: > 10 µM

Inquiry: Again, but for O=C(c1cc(Cc2n[nH]c(=O)c3ccccc23)ccc1F)N1CCN(C(=O)C2CC2)CC1 + CC(CO)NC(=O)c1cc(-c2ccc(Cl)cc2)nn(-c2cnn(C)c2)c1=O
Reply text: > 10 µM

Inquiry: // query: CC[C@@]1(O)C(=O)OCc2c1cc1n(c2=O)Cc2cc3c(CN(C)C)c(O)ccc3nc2-1 + CC(CO)NC(=O)c1cc(-c2ccc(Cl)cc2)nn(-c2cnn(C)c2)c1=O
Reply text: > 0.1 µM

Inquiry: Next up: Nc1ncn(C2CC(O)C(CO)O2)c(=O)n1 (centres undefined) + Cc1ccccc1N=Nc1ccc(NC(=O)c2ccnn2C)c(C)c1
Reply text: > 1 µM
